Test system: Plasmodium falciparum
Test: GSK_TCMDC: Inhibition of Plasmodium falciparum Dd2 in whole red blood cells, using parasite LDH activity as an index of growth. Test compounds present at 2uM
Type: functional
Hi there, I'd appreciate the recorded Inhibition for every entry that follows.
Report the figure in % without appending any unit label.

Looking up CCCCCCC(C)c1cc(O)c2c(c1)OC(C)(C)C=C2c1ccncc1 (centres undefined) , I see its Inhibition listed as 29

Looking up "N=C(N)NCCCN(Cc1ccccc1)c1ccc(Cl)cc1.O=S(=O)(O)O" , I see its Inhibition listed as 98

Looking up "COc1ccc(NC(=O)Nc2ccc(-c3ccc(-c4nc5ccccc5[nH]4)cc3)cc2)cc1" , I see its Inhibition listed as 27

Looking up CCCC1CCNC(C(O)c2ccnc3ccc(OC)cc23)C1.Cl (centres undefined) , I see its Inhibition listed as 78

Looking up "O=C(Nc1nc(-c2ccccn2)cs1)c1ccc(Br)s1" , I see its Inhibition listed as 84

Looking up CC1CN(c2cnn(Cc3ccc(NC(=O)Nc4ccc(-c5ccccc5)cc4)cc3)c(=O)c2Cl)CC(C)N1.O=C(O)C(F)(F)F (centres undefined) , I see its Inhibition listed as 46

Looking up "CN1CCCc2ccc(NC(=O)c3ccc(-c4cc(C(F)(F)F)nn4C)s3)cc2C1.O=C(O)C(F)(F)F" , I see its Inhibition listed as 34

Looking up CCCCCN1CCCC(NS(=O)(=O)c2ccc(C(=O)Nc3ccc(C(F)(F)F)cc3)cc2)C1.O=C(O)C(F)(F)F (centres undefined) , I see its Inhibition listed as 20

Looking up "CC(C)(CNC(=O)/C=C/c1ccc(Cl)c(Cl)c1)CNc1cc(=O)c2ccccc2[nH]1" , I see its Inhibition listed as 29

Looking up COc1ccccc1-c1csc(C(=O)NC2CCCCN(Cc3ccc(C(C)(C)C)cc3)C2)c1.O=C(O)C(F)(F)F (centres undefined) , I see its Inhibition listed as 8

Looking up CCCN(Cc1nnc(-c2ccco2)o1)C(=O)C1CCCN(C(=O)c2ccc(Cl)cc2)C1 (centres undefined) , I see its Inhibition listed as 96

Looking up "CCNc1cc(C(=O)N[C@@H](Cc2ccccc2)[C@H](O)CNC2CCCC2)cc(N2CCCC2=O)c1" , I see its Inhibition listed as 98

Looking up "COc1ccc(CCN(C)CCCCc2ccc(NC(=O)c3cccc4c(=O)c5cc(F)ccc5sc34)cc2)cc1OC" , I see its Inhibition listed as 49

Looking up CCCCC(CC)NC(=O)[C@H]1CNCCN1C(=O)CCCc1ccccc1.O=C(O)C(F)(F)F (some centres undefined) , I see its Inhibition listed as 0

Looking up "Cc1ccc2c(=NN=Cc3ccc(Cl)cc3)cc(C)[nH]c2c1" , I see its Inhibition listed as 34

Looking up "O=C(Nc1cc(Cl)ccc1O)c1ccc(Oc2ccc(C(=O)Nc3cc(Cl)ccc3O)cc2)cc1" , I see its Inhibition listed as 91

Looking up Cc1ccc(N2C(=O)C3C(C2=O)C2(c4ccccc4)C(=O)C3(c3ccccc3)C(c3ccccc3)=C2c2ccccc2)c(C)c1 (centres undefined) , I see its Inhibition listed as 96

Looking up "COc1ccc(-c2onc(C(F)(F)F)c2-c2cc3ccccc3o2)c(O)c1" , I see its Inhibition listed as 15

Looking up "Cc1cnc(C(=O)Nc2ccc(-c3cccc(-c4nc5ccccc5[nH]4)c3)cc2)cn1" , I see its Inhibition listed as 8
